- System: MDA-MB-231 cells
- MEASUREMENT_NOTES: Novelty detection of drug MoA on single-cell Chemical Painting data (LDA, Mahalanobis distance, isolation forest)
- Type: cell-based, human
- DETAILS: test compounds; single-cell data predicted as outliers (novel)
Structures can show the parent of a compound that is named as a salt.
So basically, if Outlier % comes in under 80% it's yes, and if it's 80% or more it's no.

INSERT INTO results (molecule, class_assignment) VALUES
  ('NC(=O)c1ccc(I)c([N+](=O)[O-])c1', 'no'),
  ('CC[C@]1(O)C[C@H]2CN(CCc3c([nH]c4ccccc34)[C@@](C(=O)OC)(c3cc4c(cc3OC)N(C=O)[C@H]3[C@@](O)(C(=O)OC)[C@H](OC(C)=O)[C@]5(CC)C=CCN6CC[C@]43[C@@H]65)C2)C1', 'no'),
  ('CC[C@H]1CN2CCc3cc(OC)c(OC)cc3[C@@H]2C[C@@H]1C[C@H]1NCCc2cc(OC)c(OC)cc21', 'yes'),
  ('CCC(=O)CCCCC[C@@H]1NC(=O)[C@H]2CCCCN2C(=O)[C@H]([C@@H](C)CC)NC(=O)[C@H](Cc2cn(OC)c3ccccc23)NC1=O', 'yes'),
  ('COc1cccc2c1C(=O)c1c(O)c3c(c(O)c1C2=O)C[C@@](O)(C(C)=O)C[C@@H]3O[C@H]1C[C@H](N)[C@H](O)[C@H](C)O1 [Daunorubicin, Daunorubicin hydrochloride]', 'yes');

Attention now turns to another entry.
QUERY: Could you please tell me whether Outlier % recorded for `CC(=O)O[C@H]1C(=O)[C@@]2(C)[C@H]([C@H](OC(=O)c3ccccc3)[C@]3(O)C[C@H](OC(=O)[C@H](O)[C@@H](NC(=O)c4ccccc4)c4ccccc4)C(C)=C1C3(C)C)[C@]1(OC(C)=O)CO[C@@H]1C[C@@H]2O` is less than 80%?
RESULT: yes
